# Tested on: Cruzipain (Trypanosoma cruzi) (UniProt P25779)
# Sequence (P25779 123-467 limits assumed): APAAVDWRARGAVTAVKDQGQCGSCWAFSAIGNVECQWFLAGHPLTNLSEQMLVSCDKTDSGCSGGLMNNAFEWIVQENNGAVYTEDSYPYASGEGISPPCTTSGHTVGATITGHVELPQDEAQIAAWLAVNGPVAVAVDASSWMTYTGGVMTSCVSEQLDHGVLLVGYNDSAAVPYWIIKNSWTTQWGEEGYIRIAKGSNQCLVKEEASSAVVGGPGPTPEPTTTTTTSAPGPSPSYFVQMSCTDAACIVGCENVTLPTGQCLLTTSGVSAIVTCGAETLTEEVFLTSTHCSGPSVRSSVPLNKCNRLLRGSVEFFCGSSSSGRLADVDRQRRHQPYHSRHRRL
# Experiment summary: qHTS Assay for Promiscuous and Specific Inhibitors of Cruzain (without detergent);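 further: plate controls were enzyme without inhibitor for no effect and buffer without enzyme for full effect; nearly all actives have a fitted effect of over 40% in size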
# Protocol conditions: purified cruzain, Z-FR-AMC fluorescence, no detergent
# Description: Cruzain is a cysteine protease from the tropical parasite Trypanosoma cruzi. […] Cruzain was assayed by the use of fluorogenic coumarin-based substrate Z-FR-AMC: proteolytic cleavage releases AMC, whose fluorescence is measured at 360 nm excitation and 450 nm emission. […]
Screen size: about 200,000 compounds; about 4,500 (2.2%) were called active. Not shown: some 12% with an inconclusive outcome. Many of the other results were omitted from the sample, so actives are more common in it than they were.

Molecule	max response, negative = inhibition / %
O=C(Nc1nc2c(s1)CCCC2)c1ccccc1F	-4.21
COc1ccc(CC(=O)Nc2nnc3n2CCS3)cc1OC	3.34
O=C(CCc1nc(CN2CCN(S(=O)(=O)c3ccc(Br)cc3)CC2)no1)N1CCCCC1	27
Oc1c(C(c2ccc(F)cc2)N2CCN(Cc3ccccc3)CC2)sc2nc(-c3ccco3)nn12 (centres undefined)	1.08
COC(=O)c1nc2ccccc2s1	-9.6
CN(C)c1ccc(-n2cccc2/C=N/n2cnnc2)cc1	-10.4
CN(CC(=O)Nc1ccccc1F)S(=O)(=O)c1ccc2c(c1)c(=O)n(C)c(=O)n2C	-13.2
CC(C)(C)n1nnnc1C(c1ccc(Cl)cc1)N1CCSCC1 (centres undefined)	-17.6
COc1ccccc1/C=C/C1=NC(=C\N(C)C)/C(=O)O1	-2
Brc1ccc2c(c1)NC(c1cccnc1)=NC(c1ccccc1)=N2	2.72
CCOC(=O)c1c(NC(=O)c2ccc(S(=O)(=O)N(CC)CC)cc2)sc2c1CCCCC2	8.24
Cc1cccc(C)c1NC(=O)CSc1ccc([N+](=O)[O-])cn1	-1.59
Cc1nn(-c2ccc(N3CCCCC3)nn2)c(C)c1CCC(=O)NCc1ccccc1F	-5.41
O=C(Nc1ccc2nc(SCC(=O)N3CCc4ccccc43)sc2c1)c1ccccc1F	-3.59
COc1ccc(CCNc2nc(-c3ccc(Cl)cc3)cc(C(F)(F)F)n2)cc1OC	-3.01
CC(C)CC(=O)Nc1cc(C(F)(F)F)ccc1N1CCOCC1	-0.397
COc1ccc2ncc3c(-c4ccc(C)c(C)c4)nn(CC(=O)NC4CCCC4)c3c2c1	1.87
Cc1cc(C)n(-c2c(F)c(F)c(COC(=O)c3ccccc3)c(F)c2F)n1	2.62
CCc1nn(CC(=O)N2CCN(c3cccc(C(F)(F)F)c3)CC2)c(=O)c2cc3occc3n12	-20.3
CC(=O)Oc1ccc(C)cc1N1C(=O)c2ccc(C(=O)O)cc2C1=O	-6.79
Cc1ccsc1C(=O)OCC(=O)c1cc2ccccc2o1	2.71
Cc1cc(NS(=O)(=O)c2ccc(NC(=O)c3ccccc3C)cc2)nc(C)n1	11.3
CC(=O)c1ccc2c(ccc3ccccc32)c1	6.49
Cc1cc(C)c(/C=C/c2onc(C)c2S(=O)(=O)N2CCC(C(=O)Nc3ccc(Cl)cc3C)CC2)c(C)c1	0.507
CCCc1cc(-c2nc(-c3ccc(C)cc3)cs2)ccn1	13.4
CCCCNC(=S)N/N=C1\CCCCc2ccccc21	-19.4
Cc1ccc(Nc2c(-c3ccc(C)cc3)nc3cnccn23)cc1	5.6
COc1ccc(-c2onc(C)c2C)cc1S(=O)(=O)NCC1CCN(Cc2cccc(F)c2)CC1	0.417
CCC(=O)Nc1ccc2nc(SCC(=O)N3CCc4ccccc43)sc2c1	26.9
Fc1ccc2nc(N3CCCCC3)sc2c1	2.08
O=C(CSc1nc(Nc2ccc(F)c(F)c2)c2ccccc2n1)c1ccc(Cl)cc1	-24.6
Cc1cccc(CNC(=O)c2cnc3sc(N4CCCCC4)nn3c2=O)c1	13.2
Cc1ccc(CNC(=O)CCC(=O)N2CC(C)Sc3ccccc32)cc1 (centres undefined)	3.17
Cc1ccc(-n2c(C)cc(/C=N\NC(=O)CC(=O)NC(C)C)c2C)cc1	-4.29
Cc1ccccc1CSc1nc(-c2ccccc2)nc2c1Cc1c(CO)cnc(C)c1O2	-5.34
Cc1nc2ccccc2cc1C(=O)N/N=C/c1ccc([N+](=O)[O-])cc1	-1.64
CC(C)OC(=O)c1c(NC(=O)c2ccco2)sc2c1CCCC2	-12.4
Cc1cccc(N2C(=O)c3cccnc3C2=O)c1	-4.26
O=c1cc(Cn2nnc(-c3ccc(Cl)cc3)n2)nc2sccn12	0.777
Cc1occc1C(=O)Nc1nnc(-c2ccncc2)s1	-3.11
CCN(c1ccc(Cl)cc1)S(=O)(=O)c1nnc(NC(=O)c2ccco2)s1	3.14
Cc1ccc(-c2noc(-c3nnn(-c4cccc(C(F)(F)F)c4)c3N)n2)cc1	1.55
O=C(CSc1nnc(Nc2ccccc2)s1)Nc1cccnc1Cl	-18
CCCCCC(=O)Nc1ccc(C(=O)N/N=C/c2ccc([N+](=O)[O-])cc2)cc1	-23.1
